# testedTarget: T1, membrane-bound full-length human CD89 on HEK293F cells (human, UniProt P24071 22-287)
# T1 construct: 2 or transient transfectants; also called membrane human CD89; human FcaRI
# testMethodNotes: FACS, antibody before secretory IgA on HEK293F-huCD89; IgA detected
assayReadout: IC50 (read off the curve)

Data request, read-out IC50 (read off the curve), for CD89/IgA blocking mouse anti-human CD89-specific antibody 20B4 (antibody, V domains shown) VH: QVQLKESGPGLVAPSQSLSITCTVSGFSLTSYGVHWVRQPPGKGLEWLGIIWAGGSTSYNSALMSRLSISKDNSKSQVFLKMNSLQTDDTAMYYCARDHYDLFAYWGQGTLVTVSA VL: DILMTQSPSSMSVSLGDTVSITCHASQDISRNIGWLQQKPGKSFKGLIYHGTNLEDGVPSRFSGSGSGADYSLTISSLESEDFADYYCVQYAQFPRTFGGGTKLEIK ~0.4 µg/mL
